meta.source: the Kinase Knowledgebase extract (Sharma et al. 2016)

Measured log10(IC50) on EGFR (human) follows.
log10 IC50, nM

CS(=O)(=O)CCNCc1cc(-c2ccc3ncnc(Nc4ccc(OCc5cccc(F)c5)c(Cl)c4)c3c2)c[nH]1 : 1.04
O=S1(=O)CCC(O)(CNCc2cn(-c3ccc4ncnc(Nc5ccc(OCc6cccc(F)c6)c(Cl)c5)c4c3)cc2CCO)CC1 : 1.28
CS(=O)(=O)CCNCc1cc(-c2ccc3ncnc(Nc4ccc5c(cnn5Cc5cccc(F)c5)c4)c3c2)c[nH]1 : 0.60

Using the record for CS(=O)(=O)CCNCC(O)Cn1ccc(-c2ccc3ncnc(Nc4ccc5c(cnn5Cc5cccc(F)c5)c4)c3c2)c1 (stereo not drawn) , report its log10(IC50).
0.00

Using the record for O=C(Cn1ccc(-c2ccc3ncnc(Nc4ccc(OCc5cccc(F)c5)c(Cl)c4)c3c2)c1)N[C@H]1CC[C@H](O)CC1 , report its log10(IC50).
2.42

* * *

target: EGFR (human) (UniProt P00533); details: a431
Sequence (P00533 whole entry, looked up): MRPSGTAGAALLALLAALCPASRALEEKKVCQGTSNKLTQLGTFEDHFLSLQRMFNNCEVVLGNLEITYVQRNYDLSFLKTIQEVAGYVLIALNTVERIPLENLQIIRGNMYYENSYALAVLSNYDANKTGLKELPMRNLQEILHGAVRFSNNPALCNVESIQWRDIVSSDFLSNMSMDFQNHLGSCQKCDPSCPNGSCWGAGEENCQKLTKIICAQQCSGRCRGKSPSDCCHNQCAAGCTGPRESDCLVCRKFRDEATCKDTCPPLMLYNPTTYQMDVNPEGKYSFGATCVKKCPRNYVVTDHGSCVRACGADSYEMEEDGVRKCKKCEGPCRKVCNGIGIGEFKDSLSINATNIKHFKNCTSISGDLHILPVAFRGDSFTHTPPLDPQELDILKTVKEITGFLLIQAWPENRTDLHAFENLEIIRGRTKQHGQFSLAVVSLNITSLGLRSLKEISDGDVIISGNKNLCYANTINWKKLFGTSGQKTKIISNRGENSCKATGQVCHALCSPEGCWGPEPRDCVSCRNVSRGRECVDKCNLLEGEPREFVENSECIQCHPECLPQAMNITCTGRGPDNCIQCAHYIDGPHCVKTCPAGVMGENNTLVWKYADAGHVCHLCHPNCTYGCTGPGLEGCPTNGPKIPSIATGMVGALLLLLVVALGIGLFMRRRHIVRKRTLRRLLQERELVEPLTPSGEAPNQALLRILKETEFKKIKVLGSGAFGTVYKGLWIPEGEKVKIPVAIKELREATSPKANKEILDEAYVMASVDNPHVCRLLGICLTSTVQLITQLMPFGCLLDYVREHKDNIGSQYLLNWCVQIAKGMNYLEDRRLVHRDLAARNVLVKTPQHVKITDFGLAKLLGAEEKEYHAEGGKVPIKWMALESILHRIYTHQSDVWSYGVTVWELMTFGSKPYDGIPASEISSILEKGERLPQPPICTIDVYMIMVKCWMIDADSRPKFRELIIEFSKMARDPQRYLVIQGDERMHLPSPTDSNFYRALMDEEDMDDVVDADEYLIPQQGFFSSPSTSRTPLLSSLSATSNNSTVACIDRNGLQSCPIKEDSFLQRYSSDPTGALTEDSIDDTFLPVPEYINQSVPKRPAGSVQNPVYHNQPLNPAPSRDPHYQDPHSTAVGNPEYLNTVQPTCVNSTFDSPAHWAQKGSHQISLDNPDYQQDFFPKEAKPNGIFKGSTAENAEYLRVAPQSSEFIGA
The entries below are paired with their reported IC50.
Please give a number only; it is taken to be in nM.

Please review the following examples before continuing.
Cn1cccc1-c1ccc2ncnc(Nc3ccc(OCc4cccc(F)c4)c(Cl)c3)c2c1 : 136
CCN(CC)CCNC(=O)c1cn(-c2ccc3ncnc(Nc4ccc(OCc5cccc(F)c5)c(Cl)c4)c3c2)cc1CCO : 680
CCN(CC)CCNCc1cccn1-c1ccc2ncnc(Nc3ccc(OCc4cccc(F)c4)c(Cl)c3)c2c1 : 770
O=C(NCCCN1CCOCC1)c1cn(-c2ccc3ncnc(Nc4ccc(F)c(Cl)c4)c3c2)cc1CCO : 560
O[C@H](CN1CCOCC1)Cn1ccc(-c2ccc3ncnc(Nc4ccc5c(cnn5Cc5cccc(F)c5)c4)c3c2)c1 : 749

Using the record for OC(CNC1CC1)Cn1ccc(-c2ccc3ncnc(Nc4ccc5c(cnn5Cc5cccc(F)c5)c4)c3c2)c1 (stereo not drawn) , report its IC50.
356

Using the record for CS(=O)(=O)CCNCc1cccn1-c1ccc2ncnc(Nc3ccc(OCc4cccc(F)c4)c(Cl)c3)c2c1 , report its IC50.
270

Using the record for OCCc1cn(-c2ccc3ncnc(Nc4ccc(OCc5cccc(F)c5)c(Cl)c4)c3c2)cc1CN1CCCC1 , report its IC50.
390

* * *

biological target: EGFR (human) (UniProt P00533)
The entries below are paired with their reported IC50.
Field: value (include unit after the number)

What is its IC50 for EGFR (human) (UniProt P00533)? Entry: O=C(c1cn(-c2ccc3ncnc(Nc4ccc(OCc5ccccn5)c(Cl)c4)c3c2)cc1CCO)N1CCOCC1
49 nM

What is its IC50 for EGFR (human) (UniProt P00533)? Entry: OCCc1cn(-c2ccc3ncnc(Nc4ccc(OCc5ccccn5)c(Cl)c4)c3c2)cc1CN1CCOCC1
22 nM

What is its IC50 for EGFR (human) (UniProt P00533)? Entry: OCC1CCCN1CCn1ccc(-c2ccc3ncnc(Nc4ccc(OCc5cccc(F)c5)c(Cl)c4)c3c2)c1 (configuration not stated)
60 nM

What is its IC50 for EGFR (human) (UniProt P00533)? Entry: COCCNCc1cn(-c2ccc3ncnc(Nc4ccc(OCc5cccc(F)c5)c(Cl)c4)c3c2)cc1C(F)(F)F
49 nM

What is its IC50 for EGFR (human) (UniProt P00533)? Entry: O=C(c1cn(-c2ccc3ncnc(Nc4ccc5c(cnn5Cc5ccc(F)cc5)c4)c3c2)cc1CCO)N1CCOCC1
50 nM

What is its IC50 for EGFR (human) (UniProt P00533)? Entry: OC(Cn1ccc(-c2ccc3ncnc(Nc4ccc5c(cnn5Cc5cccc(F)c5)c4)c3c2)c1)Cn1ccnn1 (configuration not stated)
58 nM

What is its IC50 for EGFR (human) (UniProt P00533)? Entry: Fc1cccc(COc2ccc(Nc3ncnc4ccc(-c5ccn(CCN6CCOCC6)c5)cc34)cc2Cl)c1
40 nM
